# Test system: Staphylococcus aureus
# Assay Name: Antimicrobial activity against methicillin-resistant Staphylococcus aureus GU 34380 after 7 days by broth microdilution method
# Assay type: functional
# Settings: GU 34380, 168 h
Measurement Name: MIC (µg/mL)
Report only the number, with the unit µg/mL understood.

input: Sample CC(CCCCCCCCC(=O)CCCCCCCCC[C@@H](O)CO)C(=O)C1=C(O)[C@H](Cc2ccc(O)cc2)NC1=O (some centres undefined) [VIRGINEONE AGLYCONE] — what was its MIC?
output: 2.8

input: What do we get for CC(CCCCCCCCC(=O)CCCCCCCCCC(O)CO[C@@H]1O[C@H](CO)[C@@H](O)[C@H](O)[C@@H]1O)C(=O)C1=C(O)C(Cc2ccc(O)cc2)NC1=O (some centres undefined) [VIRGINEONE] ?
output: 7.2

###

# Test system: Staphylococcus aureus
# Assay Name: Antimicrobial activity against Staphylococcus aureus ATCC 6538 after 7 days by broth microdilution method
# Format: functional
# Settings: ATCC 6538, 168 h
Measurement Name: MIC (µg/mL)
Report only the number, with the unit µg/mL understood.

input: Sample CC(CCCCCCCCC(=O)CCCCCCCCC[C@@H](O)CO)C(=O)C1=C(O)[C@H](Cc2ccc(O)cc2)NC1=O (some centres not stated) — what was its MIC?
output: 2.8

input: What do we get for CC(CCCCCCCCC(=O)CCCCCCCCCC(O)CO[C@@H]1O[C@H](CO)[C@@H](O)[C@H](O)[C@@H]1O)C(=O)C1=C(O)C(Cc2ccc(O)cc2)NC1=O (some centres not stated) ?
output: 7.2

input: What do we get for CN[C@H](CC(C)C)C(=O)N[C@H]1C(=O)N[C@@H](CC(N)=O)C(=O)N[C@H]2C(=O)N[C@H]3C(=O)N[C@H](C(=O)N[C@H](C(=O)O)c4cc(O)cc(O)c4-c4cc3ccc4O)[C@H](O)c3ccc(c(Cl)c3)Oc3cc2cc(c3O[C@@H]2O[C@H](CO)[C@@H](O)[C@H](O)[C@H]2O[C@H]2C[C@](C)(N)[C@H](O)[C@H](C)O2)Oc2ccc(cc2Cl)[C@H]1O ?
output: 0.25

input: What do we get for CC(CCCCCCCCC(=O)CCCCCCCCC[C@@H](O)CO[C@@H]1O[C@H](CO)[C@@H](O)[C@H](O)[C@H]1O)C(=O)C1=C(O)C(Cc2ccc(O)cc2)=NC1=O (some centres not stated) ?
output: 14

###

# Tested on: Cryptococcus neoformans
# Assay Name: Antifungal activity against Cryptococcus neoformans after 7 days by broth microdilution method
# Format: functional
# Settings: 168 h
Measurement Name: MIC

input: Sample CC[C@H](C)[C@@H](NC(=O)[C@@](C)(CC)NC(=O)[C@@H]1C[C@@H](O)CN1C(=O)C(C)(C)NC(=O)[C@@](C)(CC)NC(=O)C(C)(C)NC(=O)[C@@H]1C[C@@H](O)CN1C(=O)[C@@](C)(CC)NC(=O)[C@H](CC(C)C)NC(=O)[C@@H]1C[C@@H](O)CN1C(=O)[C@](C)(CC)NC(=O)[C@H](CC(C)C)NC(=O)[C@@H]1C[C@@H](O)CN1C(=O)C(C)(C)NC(C)=O)C(=O)O[C@@H]([C@H](O)[C@H](O)CO)[C@H](O)CO — what was its MIC?
output: > 118 µg/mL

input: What do we get for CC[C@H](C)[C@@H](NC(=O)[C@@](C)(CC)NC(=O)[C@@H]1C[C@@H](O)CN1C(=O)[C@@](C)(CC)NC(=O)[C@@](C)(CC)NC(=O)C(C)(C)NC(=O)[C@@H]1C[C@@H](O)CN1C(=O)[C@@](C)(CC)NC(=O)[C@H](CC(C)C)NC(=O)[C@@H]1C[C@@H](O)CN1C(=O)[C@](C)(CC)NC(=O)[C@H](CC(C)C)NC(=O)[C@@H]1C[C@@H](O)CN1C(=O)C(C)(C)NC(C)=O)C(=O)O[C@@H]([C@H](O)[C@H](O)CO)[C@H](O)CO ?
output: > 118 µg/mL

input: What do we get for CC(CCCCCCCCC(=O)CCCCCCCCCC(O)CO[C@@H]1O[C@H](CO)[C@@H](O)[C@H](O)[C@@H]1O)C(=O)C1=C(O)C(Cc2ccc(O)cc2)NC1=O (stereo partly specified) ?
output: 14.4 µg/mL

input: What do we get for C[C@@H]1[C@H](O)[C@@H](C)/C=C/C=C/C=C/C=C/C=C/C=C/C=C/[C@H](O[C@@H]2O[C@H](C)[C@@H](O)[C@H](N)[C@@H]2O)C[C@@H]2O[C@](O)(C[C@@H](O)C[C@@H](O)[C@H](O)CC[C@@H](O)C[C@@H](O)CC(=O)O[C@H]1C)C[C@H](O)[C@H]2C(=O)O ?
output: 25 µg/mL

input: What do we get for CC(CCCCCCCCC(=O)CCCCCCCCC[C@@H](O)CO[C@@H]1O[C@H](CO)[C@@H](O)[C@H](O)[C@H]1O)C(=O)C1=C(O)C(Cc2ccc(O)cc2)=NC1=O (stereo partly specified) ?
output: > 55 µg/mL

input: What do we get for CC(CCCCCCCCC(=O)CCCCCCCCC[C@@H](O)CO)C(=O)C1=C(O)[C@H](Cc2ccc(O)cc2)NC1=O (stereo partly specified) ?
output: > 88 µg/mL
